# system: T1, human Granzyme B (human, UniProt P10144 21-247)
# T1 construct: Captured on a Series S Streptavidin chip for SPR; also called hGranzyme B; GzmB
# T1 sequence (P10144 21-247 limits assumed): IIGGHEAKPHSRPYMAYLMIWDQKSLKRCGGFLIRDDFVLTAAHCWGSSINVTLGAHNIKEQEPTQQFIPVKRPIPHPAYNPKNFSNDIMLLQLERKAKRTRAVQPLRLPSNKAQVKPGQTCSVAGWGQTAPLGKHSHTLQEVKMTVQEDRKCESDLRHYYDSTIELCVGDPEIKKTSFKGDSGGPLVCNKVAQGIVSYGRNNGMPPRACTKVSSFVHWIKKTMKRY
# test summary: SPR, Biacore 8k+, hGranzyme B captured on SA chip, single cycle kinetics, 1:1 model
Bridge positions count the residues as written; N and C are the ends. Square brackets hold non-standard residues; d marks the D form. NOTA‑1 = 1,4,7-triazacyclononane-N,N',N''-triacetic acid phenyl thiourea; Trp(5-F) = N[C@@H](Cc1c[nH]c2ccc(F)cc12)C(=O)O; Pro(trans-4-F) = O=C(O)[C@@H]1C[C@@H](F)CN1; Phe(4-Me) = Cc1ccc(C[C@H](N)C(=O)O)cc1; NEtAla = CCN[C@@H](C)C(=O)O
I'd appreciate it if you could supply Kd values for the items below.
Numbers only, in nM.

Some binders with recorded Kd:
binder | unit symbol | Kd
{CH2CO}-FNFEDQS[Pro(trans-4-F)]DTWQPCGGK(NOTA‑1)-NH2 (thioether N-14) [Compound 12a] | nM | 1.6
{CH2CO}-FNFEDQSPQTWQPCG-NH2 (thioether N-14; SMILES C[C@@H](O)[C@@H]1NC(=O)[C@H](CCC(N)=O)NC(=O)[C@@H]2CCCN2C(=O)[C@H](CO)NC(=O)[C@H](CCC(N)=O)NC(=O)[C@H](CC(=O)O)NC(=O)[C@H](CCC(=O)O)NC(=O)[C@H](Cc2ccccc2)NC(=O)[C@H](CC(N)=O)NC(=O)[C@H](Cc2ccccc2)NC(=O)CSC[C@@H](C(=O)NCC(N)=O)NC(=O)[C@@H]2CCCN2C(=O)[C@H](CCC(N)=O)NC(=O)[C@H](Cc2c[nH]c3ccccc23)NC1=O) [Compound 56a] | nM | 5.5
{CH2CO}-[Phe(4-Me)]NFEDQSPDTWQPCG-NH2 (thioether N-14) [Compound 43a] | nM | 3.1

# map each binder to its Kd
1. {CH2CO}-FNFEDQSPDTWQ[Pro(trans-4-F)]CG-NH2 (thioether N-14) [Compound 49a]
2. {CH2CO}-FNFEDQSPDT[Trp(5-F)]QPCG-NH2 (thioether N-14) [Compound 47a]
3. {CH2CO}-FNFEDQS[NEtAla]DTWQPCG-NH2 (thioether N-14; SMILES CCN1C(=O)[C@H](CO)NC(=O)[C@H](CCC(N)=O)NC(=O)[C@H](CC(=O)O)NC(=O)[C@H](CCC(=O)O)NC(=O)[C@H](Cc2ccccc2)NC(=O)[C@H](CC(N)=O)NC(=O)[C@H](Cc2ccccc2)NC(=O)CSC[C@@H](C(=O)NCC(N)=O)NC(=O)[C@@H]2CCCN2C(=O)[C@H](CCC(N)=O)NC(=O)[C@H](Cc2c[nH]c3ccccc23)NC(=O)[C@H]([C@@H](C)O)NC(=O)[C@H](CC(=O)O)NC(=O)[C@@H]1C) [Compound 72a]
4. {CH2CO}-FNFEDQSVDTWQPCGGK-NH2 (thioether N-14; SMILES CC(C)[C@@H]1NC(=O)[C@H](CO)NC(=O)[C@H](CCC(N)=O)NC(=O)[C@H](CC(=O)O)NC(=O)[C@H](CCC(=O)O)NC(=O)[C@H](Cc2ccccc2)NC(=O)[C@H](CC(N)=O)NC(=O)[C@H](Cc2ccccc2)NC(=O)CSC[C@@H](C(=O)NCC(=O)NCC(=O)N[C@@H](CCCCN)C(N)=O)NC(=O)[C@@H]2CCCN2C(=O)[C@H](CCC(N)=O)NC(=O)[C@H](Cc2c[nH]c3ccccc23)NC(=O)[C@H]([C@@H](C)O)NC(=O)[C@H](CC(=O)O)NC1=O) [Compound 23a]
5. {CH2CO}-FNFEDQNADTWQPCG-NH2 (thioether N-14; SMILES C[C@@H]1NC(=O)[C@H](CC(N)=O)NC(=O)[C@H](CCC(N)=O)NC(=O)[C@H](CC(=O)O)NC(=O)[C@H](CCC(=O)O)NC(=O)[C@H](Cc2ccccc2)NC(=O)[C@H](CC(N)=O)NC(=O)[C@H](Cc2ccccc2)NC(=O)CSC[C@@H](C(=O)NCC(N)=O)NC(=O)[C@@H]2CCCN2C(=O)[C@H](CCC(N)=O)NC(=O)[C@H](Cc2c[nH]c3ccccc23)NC(=O)[C@H]([C@@H](C)O)NC(=O)[C@H](CC(=O)O)NC1=O) [Compound 29a]

Solution:
4.5
4.1
20.2
27.5
31.4

Answer for every listed entry: what is its Kd? The entries follow.
1. {CH2CO}-FNFEDQSASTWQPCG-NH2 (thioether N-14; SMILES C[C@@H]1NC(=O)[C@H](CO)NC(=O)[C@H](CCC(N)=O)NC(=O)[C@H](CC(=O)O)NC(=O)[C@H](CCC(=O)O)NC(=O)[C@H](Cc2ccccc2)NC(=O)[C@H](CC(N)=O)NC(=O)[C@H](Cc2ccccc2)NC(=O)CSC[C@@H](C(=O)NCC(N)=O)NC(=O)[C@@H]2CCCN2C(=O)[C@H](CCC(N)=O)NC(=O)[C@H](Cc2c[nH]c3ccccc23)NC(=O)[C@H]([C@@H](C)O)NC(=O)[C@H](CO)NC1=O) [Compound 79a]
2. {CH2CO}-FNFEDQSAATWQPCG-NH2 (thioether N-14; SMILES C[C@@H]1NC(=O)[C@H](C)NC(=O)[C@H](CO)NC(=O)[C@H](CCC(N)=O)NC(=O)[C@H](CC(=O)O)NC(=O)[C@H](CCC(=O)O)NC(=O)[C@H](Cc2ccccc2)NC(=O)[C@H](CC(N)=O)NC(=O)[C@H](Cc2ccccc2)NC(=O)CSC[C@@H](C(=O)NCC(N)=O)NC(=O)[C@@H]2CCCN2C(=O)[C@H](CCC(N)=O)NC(=O)[C@H](Cc2c[nH]c3ccccc23)NC(=O)[C@H]([C@@H](C)O)NC1=O) [Compound 77a]

Solution:
1: 34.8; 2: 29.2
